Where these numbers come from: patent US7273856B2

Target: human NK-2 receptor (Homo sapiens, UniProt P21452)
Sequence (P21452 1-398): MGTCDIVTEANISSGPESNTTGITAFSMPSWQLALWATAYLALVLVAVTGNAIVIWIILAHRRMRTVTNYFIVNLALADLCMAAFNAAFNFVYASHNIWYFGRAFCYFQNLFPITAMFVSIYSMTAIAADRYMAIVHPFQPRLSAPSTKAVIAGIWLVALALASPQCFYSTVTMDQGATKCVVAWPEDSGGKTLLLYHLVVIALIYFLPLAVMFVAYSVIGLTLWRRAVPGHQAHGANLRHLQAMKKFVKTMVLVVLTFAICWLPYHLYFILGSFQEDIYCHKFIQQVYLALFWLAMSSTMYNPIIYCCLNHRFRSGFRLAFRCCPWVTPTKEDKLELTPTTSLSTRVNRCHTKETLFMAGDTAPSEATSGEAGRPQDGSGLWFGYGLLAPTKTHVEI
pKi: −log10 of the molar value. Where a name gives a salt, the structure may show the parent alone.
measure: pKi

A selection of reference data follows.
COc1ccc2oc(C(=O)NC3(C(=O)N[C@H](Cc4ccccc4)C(=O)NCC4CCN(CC5CCOCC5)CC4)CCCC3)cc2c1 | 9.40
O=C(NC1(C(=O)N[C@H](Cc2ccccc2)C(=O)NCCC(=O)N2CCN(c3ccccn3)CC2)CCCC1)c1ccc2cc(Br)ccc2c1 [Example 58, TFA salt] | 8.50
O=C(NC1(C(=O)N[C@H](Cc2ccccc2)C(=O)NCC2CCN(C3CCSCC3)CC2)CCCC1)c1cc2cc(Cl)ccc2o1 | 10.10
O=C(NC1(C(=O)N[C@H](Cc2ccccc2)C(=O)NCC2CCN(CC3CCOCC3)CC2)CCCC1)c1cc2cc(F)ccc2o1 | 9.30
O=C(N[C@]1(C(=O)N[C@H](Cc2ccccc2)C(=O)NCCCN2CCOCC2)CCc2ccccc21)c1cc2ccccc2s1 | 8.70

P: O=C(C=Cc1ccc(Cl)c(Cl)c1)NC1(C(=O)N[C@H](Cc2ccccc2)C(=O)NCCCN2CCOCC2)CCCC1
Q: O=C(NC1(C(=O)N[C@H](Cc2ccccc2)C(=O)NCC2CCN(CC3CCOCC3)CC2)CCCC1)c1cc2cccc(C(F)(F)F)c2s1
query: Given P and given Q , which shows the smaller recorded pKi? Could you answer with the label of the item you picked?
result: P
(P: 9.10, Q: 10.20)

====

Target: human NK-2 receptor (Homo sapiens, UniProt P21452)
Construct: expressed in transfected cells; host or cells: CHO (Chinese hamster ovary) cells, membranes
Sequence (P21452 1-398): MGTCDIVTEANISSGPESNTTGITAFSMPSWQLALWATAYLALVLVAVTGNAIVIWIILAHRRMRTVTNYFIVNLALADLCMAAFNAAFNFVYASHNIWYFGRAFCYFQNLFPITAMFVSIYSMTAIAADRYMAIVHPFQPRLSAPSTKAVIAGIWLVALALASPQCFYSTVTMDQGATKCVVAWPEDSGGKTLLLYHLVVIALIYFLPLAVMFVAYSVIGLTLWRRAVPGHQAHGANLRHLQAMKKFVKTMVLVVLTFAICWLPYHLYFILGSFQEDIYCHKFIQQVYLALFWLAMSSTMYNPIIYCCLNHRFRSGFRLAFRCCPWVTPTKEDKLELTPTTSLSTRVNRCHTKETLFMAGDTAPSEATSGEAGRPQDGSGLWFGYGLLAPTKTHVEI
Experiment: binding test, affinity for the human NK-2 receptor, competition with [125I]NKA on transfected CHO cell membranes
Conditions: CHO cell membranes transfected with NK-2 receptor of human ileum; [125I]NKA 100 pM; 30 min, 20° C.
Experimental: The evaluation of the antagonist activity on NK-2 receptors has been assessed by binding and functional tests according to that already described in literature in relation to NK-2 antagonists. The test substances have been tested within a concentration range from 0.01 nM to 10 nM. At the end of the incubation time (30 min, 20° C.) the samples have been filtered and radioactivity has been determined using a gamma-counter.
measure: pKi

NC1CCCCC1NC(=O)[C@@H]1C[C@@H](NC(=O)[C@@H](Cc2ccccc2)NC(=O)C2(NC(=O)c3cc4ccccc4s3)CCCC2)CN1 (relative stereo) | 10.6
N[C@H]1CCCC[C@@H]1NC[C@@H]1CC[C@H](NC(=O)[C@@H](Cc2ccccc2)NC(=O)C2(NC(=O)c3cc4ccccc4s3)CCCC2)C1 | 9.5
N[C@H]1CCCC[C@@H]1NC(=O)[C@@H]1CC[C@H](NC(=O)[C@@H](Cc2ccccc2)NC(=O)C2(NC(=O)c3ccc(-c4ccccc4)cc3)CCCC2)C1.O=C(O)C(F)(F)F | 9.6

====

Molecular target: human NK-2 receptor (Homo sapiens)
Sequence (P21452 1-398): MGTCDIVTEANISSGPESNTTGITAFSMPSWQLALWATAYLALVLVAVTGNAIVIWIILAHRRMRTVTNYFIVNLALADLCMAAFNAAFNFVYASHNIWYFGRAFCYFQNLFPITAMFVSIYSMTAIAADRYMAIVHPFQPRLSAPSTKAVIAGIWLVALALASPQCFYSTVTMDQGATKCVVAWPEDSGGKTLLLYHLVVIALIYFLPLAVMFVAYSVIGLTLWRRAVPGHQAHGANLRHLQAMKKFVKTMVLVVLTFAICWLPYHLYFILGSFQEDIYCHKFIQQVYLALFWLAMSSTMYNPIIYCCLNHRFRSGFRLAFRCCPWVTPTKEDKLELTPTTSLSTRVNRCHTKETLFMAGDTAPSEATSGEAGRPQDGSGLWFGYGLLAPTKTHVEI
Where a name gives a salt, the structure may show the parent alone.
measure: Ki (nM)

Record excerpt, results attached:
NC1CCCCC1NC(=O)C1CCC(NC(=O)C(Cc2ccccc2)NC(=O)C2(NC(=O)c3cc4ccccc4s3)CCCCC2)C1 (single isomer, unassigned) | 1.26
Cn1c(C(=O)NC2(C(=O)N[C@H](Cc3ccccc3)C(=O)NCCCN3CCOCC3)CCCC2)cc2ccc(Cl)cc21 | 0.2
Cc1cc2oc(C(=O)NC3(C(=O)N[C@H](Cc4ccccc4)C(=O)NCC4CCN(CC5CCOCC5)CC4)CCCC3)c(C)c2cc1C | 0.316

A: O=C(NC1(C(=O)N[C@H](Cc2ccccc2)C(=O)NCC2CCN(C3CCOCC3)CC2)CCCC1)c1ccc2cc(Br)ccc2c1
B: O=C(NC1(C(=O)N[C@H](Cc2ccccc2)C(=O)NCCCN2CCC3(CC2)OCCO3)CCCC1)c1cc2ccccc2s1 [Example 55, TFA salt]
C: Cc1cccc2cc(C(=O)NC3(C(=O)N[C@H](Cc4ccccc4)C(=O)NCC4CCN(CC5CCOCC5)CC4)CCCC3)sc12
query: Arrange these 3 molecules in increasing order of Ki. Put the labels in the requested order and list them out.
result: C, A, B

P: O=C(NC1(C(=O)N[C@H](Cc2ccccc2)C(=O)NCCC2CCN(C(=O)[C@H]3CCCN3)CC2)CCCC1)c1ccc2cc(Br)ccc2c1
Q: O=C(NC1(C(=O)N[C@H](Cc2ccccc2)C(=O)NCC2CCN(CC3COCOC3)CC2)CCCC1)c1cc2ccccc2s1 [Example 88, TFA salt]
query: Recorded Ki values differ for P and Q ; which one is higher? The response must carry the label of the picked entry.
result: Q

A: O=C(NC1(C(=O)N[C@H](Cc2ccccc2)C(=O)NCC2CCN(CC3CCOCC3)CC2)CCCC1)c1cc2ccc(Cl)cc2o1
B: O=C(NC1(C(=O)N[C@H](Cc2ccccc2)C(=O)NCC2CCN(CC3CCOCC3)CC2)CCCC1)c1cc2cc(I)ccc2o1
query: Please state the entry with greater Ki among A and B . Let me know the label of the one you choose.
result: A
(A: 0.316 nM, B: 0.0794 nM)

I: NC1CCCCC1NC(=O)C1CCC(NC(=O)C(Cc2ccccc2)NC(=O)C2(NC(=O)c3cc4ccccc4s3)CCCC2)C1 (single isomer, unassigned)
II: O=C(NC1(C(=O)N[C@H](Cc2ccccc2)C(=O)NCCCN2CCOCC2)CCCC1)c1cc2ccc(Cl)c(Cl)c2s1
query: Looking only at measured Ki, which entry is lower, I or II ? The response must carry the label of the picked entry.
result: I

====

target: human NK-2 receptor (Homo sapiens, UniProt P21452); construct: expressed in transfected cells; host or cells: CHO (Chinese hamster ovary) cells, membranes; experiment: binding test, affinity for the human NK-2 receptor, competition with [125I]NKA on transfected CHO cell membranes; details: CHO cell membranes transfected with NK-2 receptor of human ileum; [125I]NKA 100 pM; 30 min, 20° C.
pKi: −log10 of the molar value. Structures can show the parent of a compound that is named as a salt.
measure: pKi

O=C(NC1(C(=O)N[C@H](Cc2ccccc2)C(=O)NCC2CCN(CC3CCOCC3)CC2)CCCC1)c1ccc2ccccc2c1 [Example 151] | 8.90
O=C(NC1(C(=O)N[C@H](Cc2ccccc2)C(=O)NCCC2CCN(C[C@@H]3CCCN3)CC2)CCCC1)c1ccc2cc(Br)ccc2c1 [Example 84, TFA salt] | 9.50
Cc1ccc(C[C@@H](NC(=O)C2(NC(=O)c3cc4ccccc4n3C)CCCC2)C(=O)N[C@H]2CC[C@@H](C(=O)N[C@H]3CCCC[C@@H]3N)C2)cc1 [Example 17, hydrochloride salt] | 8.60

I: O=C(NC1(C(=O)N[C@H](Cc2ccccc2)C(=O)NCC2CCN(CC3CCOCC3)CC2)CCCC1)c1cc2cccc(Cl)c2s1 [Example 137]
II: O=C(NC1(C(=O)N[C@H](Cc2ccccc2)C(=O)NCC2CCN(CC3CCOCC3)CC2)CCCC1)c1ccc2cc(I)ccc2c1 [Example 117]
III: CC1CN(CCCNC(=O)[C@@H](Cc2ccccc2)NC(=O)C2(NC(=O)c3cc4ccccc4s3)CCCCC2)CC(C)O1 (stereo partly shown) [Example 48]
IV: COC1CCN(CCCNC(=O)[C@@H](Cc2ccccc2)NC(=O)C2(NC(=O)c3cc4ccccc4s3)CCCC2)CC1 [Example 53, TFA salt]
V: O=C(NC1(C(=O)N[C@H](Cc2ccccc2)C(=O)NCC2CCN(CCC3CCOCC3)CC2)CCCC1)c1cc2ccccc2s1 [Example 78]
query: Sort these molecules on pKi so the largest reading comes first. Present the labels in the sequence the task asks for.
result: II, I, III, V, IV

P: NC1(C(=O)N2CCC(CNC(=O)[C@@H](Cc3ccccc3)NC(=O)C3(NC(=O)c4cc5ccccc5s4)CCCC3)CC2)CCCCC1 [Example 96, TFA salt]
Q: O=C(C=Cc1ccc(Br)c(Br)c1)NC1(C(=O)N[C@H](Cc2ccccc2)C(=O)NCCCN2CCOCC2)CCCC1 [Example 50]
query: Compare the recorded pKi of P and Q ; state which is larger. Kindly state the label of the option you pick.
result: P

I: O=C(NC1(C(=O)N[C@H](Cc2ccccc2)C(=O)NCC2CCN(C3CCSCC3)CC2)CCCC1)c1cc2ccccc2s1 [Example 81, TFA salt]
II: CN1CCCN(CCCNC(=O)[C@@H](Cc2ccccc2)NC(=O)C2(NC(=O)c3cc4ccccc4s3)CCCC2)CC1 [Example 52, TFA salt]
query: Select one. Lower pKi: I or II Give the label under which the chosen entry appears.
result: II
